Origin of values: patent US4459294A

Test system: Pieris brassicae
Experiment: Biological activity on Pieris brassicae (Lepitoptera), 5-day old larvae
Type: in vivo
Conditions: 0.1 permill.; 48 hours after treatment
ASSAY READOUT: percentage of reduction of the infestation (percentage death rate of larvae), Pieris B

INSERT INTO assay_data (molecule, value_observed) VALUES
  ('COP(=S)(OC)Oc1cc(Cl)nn1-c1ccccc1', '100%');

Would you mind giving percentage of reduction of the infestation (percentage death rate of larvae), Pieris B for every molecule in the list below?
1. CCOP(=S)(OCC)Oc1cc(C)[nH]n1 [Pyrazothion, reference compound]
2. CCOP(=S)(OCC)Oc1cc(Cl)nn1C(C)C

// result
1: 70%; 2: 100%

For every record below, what is its percentage of reduction of the infestation (percentage death rate of larvae), Pieris B?
1. CCOP(=S)(OCC)Oc1cc(C=C(Cl)Cl)nn1C
2. CCOP(=S)(OCC)Oc1cc(Cl)n(-c2ccc([N+](=O)[O-])cc2)n1

// result
1: 100%; 2: 100%
